Recorded values, source ChEMBL document CHEMBL4346704.

Tested on: Trypanosoma brucei
Assay: Antitrypanosomal activity against Trypanosoma brucei 221 incubated for 48 hrs by resazurin based fluorescence assay
Type: functional, organism-based
Conditions: Trypanosoma brucei, 221, 48 h
Please respond with reported IC90 for every item in the list.
One number for each entry, in µM.

Cl.Cl.N=C(N)c1ccc2[nH]c(-c3ccc(Cn4cc(COc5ccc(OCc6cn(Cc7ccc(-c8nc9cc(C(=N)N)ccc9[nH]8)o7)nn6)cc5)nn4)o3)nc2c1	5.6

Report IC90 for every entry below.
1. Cl.Cl.N=C(N)c1ccc2[nH]c(-c3ccc(Cn4cc(CCCc5cn(Cc6ccc(-c7nc8cc(C(=N)N)ccc8[nH]7)o6)nn5)nn4)o3)nc2c1
2. Cl.Cl.c1cc2[nH]c(-c3ccc(Cn4cc(COCc5cn(Cc6ccc(-c7nc8cc(C9=NCCN9)ccc8[nH]7)o6)nn5)nn4)o3)nc2cc1C1=NCCN1

Marked response:
[5.5, 6]

* * *

Assay: Binding affinity to polyA-polyU dsRNA (unknown origin) assessed as hypochromic effect by UV-vis spectrophotometric method relative to control
Type: nucleic-acid assay
Parameters: concentration or dose not given beside the values
Quick rule for you: Activity at 30% or higher means yes (1), lower means no (0).

Exam item: Does the reported Activity for `Clc1ccc2[nH]c(-c3ccc(Cn4cc(COc5ccc(-c6ccc(OCc7cn(Cc8ccc(-c9nc%10cc(Cl)ccc%10[nH]9)o8)nn7)cc6)cc5)nn4)o3)nc2c1` fall at or above the 30% mark?
Marked response: no (0)

Exam item: Does the reported Activity for `Cl.Cl.N=C(N)c1ccc2[nH]c(-c3ccc(Cn4cc(COc5ccc(OCc6cn(Cc7ccc(-c8nc9cc(C(=N)N)ccc9[nH]8)o7)nn6)cc5)nn4)o3)nc2c1` fall at or above the 30% mark?
Marked response: no (0)

Exam item: Does the reported Activity for `Fc1ccc2[nH]c(-c3ccc(Cn4cc(COc5ccc(-c6ccc(OCc7cn(Cc8ccc(-c9nc%10cc(F)ccc%10[nH]9)o8)nn7)cc6)cc5)nn4)o3)nc2c1` fall at or above the 30% mark?
Marked response: no (0)

* * *

Assay: Binding affinity to polyA-polyU dsRNA (unknown origin) assessed as hypochromic effect by UV-vis spectrophotometric method relative to control
Type: nucleic-acid assay
Set-up: concentration or dose not given beside the values
Please respond with reported Activity for every item in the list.
One number for each entry, in %.

c1cc(-c2ccc(OCc3cn(Cc4ccc(-c5nc6cc(C7=NCCN7)ccc6[nH]5)o4)nn3)cc2)ccc1OCc1cn(Cc2ccc(-c3nc4cc(C5=NCCN5)ccc4[nH]3)o2)nn1	8
CC(C)NC(=N)c1ccc2[nH]c(-c3ccc(Cn4cc(CCCc5cn(Cc6ccc(-c7nc8cc(C(=N)NC(C)C)ccc8[nH]7)o6)nn5)nn4)o3)nc2c1.Cl.Cl	32
CC(C)NC(=N)c1ccc2[nH]c(-c3ccc(Cn4cc(COc5ccc(OCc6cn(Cc7ccc(-c8nc9cc(C(=N)NC(C)C)ccc9[nH]8)o7)nn6)cc5)nn4)o3)nc2c1.Cl.Cl	11
Cl.Cl.N=C(N)c1ccc2[nH]c(-c3ccc(Cn4cc(CCCc5cn(Cc6ccc(-c7nc8cc(C(=N)N)ccc8[nH]7)o6)nn5)nn4)o3)nc2c1	46

Exam item: Give the value of Activity reported for the following: `Clc1ccc2[nH]c(-c3ccc(Cn4cc(CCCc5cn(Cc6ccc(-c7nc8cc(Cl)ccc8[nH]7)o6)nn5)nn4)o3)nc2c1`
Marked response: 34

* * *

Tested on: Calf thymus DNA
Assay: Binding affinity to calf thymus DNA assessed as change in melting temperature at compound to calf thymus DNA polynucleotide ratio of 0.1 by spectrophotometric analysis
Format: nucleic-acid assay
Settings: Bos taurus
Quick rule for you: ΔTm at 8 °C or higher means 1.0, lower means 0.0.

Record excerpt, results attached:
Cl.Cl.N=C(N)c1ccc2[nH]c(-c3ccc(Cn4cc(COc5ccc(OCc6cn(Cc7ccc(-c8nc9cc(C(=N)N)ccc9[nH]8)o7)nn6)cc5)nn4)o3)nc2c1	1.0
Fc1ccc2[nH]c(-c3ccc(Cn4cc(COCc5cn(Cc6ccc(-c7nc8cc(F)ccc8[nH]7)o6)nn5)nn4)o3)nc2c1	0.0
Fc1ccc2[nH]c(-c3ccc(Cn4cc(COc5ccc(OCc6cn(Cc7ccc(-c8nc9cc(F)ccc9[nH]8)o7)nn6)cc5)nn4)o3)nc2c1	0.0
Cl.Cl.N=C(N)c1ccc2[nH]c(-c3ccc(Cn4cc(CCCc5cn(Cc6ccc(-c7nc8cc(C(=N)N)ccc8[nH]7)o6)nn5)nn4)o3)nc2c1	1.0

# evaluate next
Exam item: Does the reported ΔTm for `CC(C)NC(=N)c1ccc2[nH]c(-c3ccc(Cn4cc(CCCc5cn(Cc6ccc(-c7nc8cc(C(=N)NC(C)C)ccc8[nH]7)o6)nn5)nn4)o3)nc2c1.Cl.Cl` fall at or above the 8 °C mark?
Marked response: 1.0

* * *

Test system: Poly(dA-dU)oligonucleotide
Assay: Binding affinity to polyA-polyU dsRNA (unknown origin) assessed as change in melting temperature at 0.3 ratio of compound to RNA by spectrophotometric analysis
Type: nucleic-acid assay
Please respond with reported ΔTm for every item in the list.
Answers are plain numbers, in °C.

Report ΔTm for every entry below.
1. Fc1ccc2[nH]c(-c3ccc(Cn4cc(COCc5cn(Cc6ccc(-c7nc8cc(F)ccc8[nH]7)o6)nn5)nn4)o3)nc2c1
2. N=C(N)c1ccc2[nH]c(-c3ccc(Cn4cc(COc5ccc(-c6ccc(OCc7cn(Cc8ccc(-c9nc%10cc(C(=N)N)ccc%10[nH]9)o8)nn7)cc6)cc5)nn4)o3)nc2c1
3. Clc1ccc2[nH]c(-c3ccc(Cn4cc(CCCc5cn(Cc6ccc(-c7nc8cc(Cl)ccc8[nH]7)o6)nn5)nn4)o3)nc2c1
4. c1cc(-c2ccc(OCc3cn(Cc4ccc(-c5nc6cc(C7=NCCN7)ccc6[nH]5)o4)nn3)cc2)ccc1OCc1cn(Cc2ccc(-c3nc4cc(C5=NCCN5)ccc4[nH]3)o2)nn1
5. c1ccc2[nH]c(-c3ccc(Cn4cc(CCCc5cn(Cc6ccc(-c7nc8ccccc8[nH]7)o6)nn5)nn4)o3)nc2c1
6. Fc1ccc2[nH]c(-c3ccc(Cn4cc(COc5ccc(-c6ccc(OCc7cn(Cc8ccc(-c9nc%10cc(F)ccc%10[nH]9)o8)nn7)cc6)cc5)nn4)o3)nc2c1

Marked response:
[1, 0.9, 0, 0, 0, 0]

Report ΔTm for every entry below.
1. Cl.Cl.c1cc2[nH]c(-c3ccc(Cn4cc(COCc5cn(Cc6ccc(-c7nc8cc(C9=NCCN9)ccc8[nH]7)o6)nn5)nn4)o3)nc2cc1C1=NCCN1
2. c1ccc2[nH]c(-c3ccc(Cn4cc(COc5ccc(-c6ccc(OCc7cn(Cc8ccc(-c9nc%10ccccc%10[nH]9)o8)nn7)cc6)cc5)nn4)o3)nc2c1
3. CC(C)NC(=N)c1ccc2[nH]c(-c3ccc(Cn4cc(COCc5cn(Cc6ccc(-c7nc8cc(C(=N)NC(C)C)ccc8[nH]7)o6)nn5)nn4)o3)nc2c1
4. Fc1ccc2[nH]c(-c3ccc(Cn4cc(COc5ccc(OCc6cn(Cc7ccc(-c8nc9cc(F)ccc9[nH]8)o7)nn6)cc5)nn4)o3)nc2c1

Marked response:
1. 4
2. 0
3. 2
4. 0

* * *

Experiment: Binding affinity to polyA-polyU dsRNA (unknown origin) assessed as hypochromic effect by UV-vis spectrophotometric method relative to control
Assay type: nucleic-acid assay
Design: concentration or dose not given beside the values
REPORTED_ENDPOINT: Activity

// solved cases for Activity follow
Fc1ccc2[nH]c(-c3ccc(Cn4cc(CCCc5cn(Cc6ccc(-c7nc8cc(F)ccc8[nH]7)o6)nn5)nn4)o3)nc2c1	31%
c1ccc2[nH]c(-c3ccc(Cn4cc(COc5ccc(OCc6cn(Cc7ccc(-c8nc9ccccc9[nH]8)o7)nn6)cc5)nn4)o3)nc2c1	22%
Clc1ccc2[nH]c(-c3ccc(Cn4cc(COCc5cn(Cc6ccc(-c7nc8cc(Cl)ccc8[nH]7)o6)nn5)nn4)o3)nc2c1	52%
N=C(N)c1ccc2[nH]c(-c3ccc(Cn4cc(COc5ccc(-c6ccc(OCc7cn(Cc8ccc(-c9nc%10cc(C(=N)N)ccc%10[nH]9)o8)nn7)cc6)cc5)nn4)o3)nc2c1	< 5%

Report Activity for every entry below.
1. CC(C)NC(=N)c1ccc2[nH]c(-c3ccc(Cn4cc(COCc5cn(Cc6ccc(-c7nc8cc(C(=N)NC(C)C)ccc8[nH]7)o6)nn5)nn4)o3)nc2c1
2. c1ccc2[nH]c(-c3ccc(Cn4cc(COc5ccc(-c6ccc(OCc7cn(Cc8ccc(-c9nc%10ccccc%10[nH]9)o8)nn7)cc6)cc5)nn4)o3)nc2c1
3. c1ccc2[nH]c(-c3ccc(Cn4cc(CCCc5cn(Cc6ccc(-c7nc8ccccc8[nH]7)o6)nn5)nn4)o3)nc2c1
4. Cl.Cl.N=C(N)c1ccc2[nH]c(-c3ccc(Cn4cc(COCc5cn(Cc6ccc(-c7nc8cc(C(=N)N)ccc8[nH]7)o6)nn5)nn4)o3)nc2c1
5. Fc1ccc2[nH]c(-c3ccc(Cn4cc(COCc5cn(Cc6ccc(-c7nc8cc(F)ccc8[nH]7)o6)nn5)nn4)o3)nc2c1
6. c1ccc2[nH]c(-c3ccc(Cn4cc(COCc5cn(Cc6ccc(-c7nc8ccccc8[nH]7)o6)nn5)nn4)o3)nc2c1
7. Fc1ccc2[nH]c(-c3ccc(Cn4cc(COc5ccc(OCc6cn(Cc7ccc(-c8nc9cc(F)ccc9[nH]8)o7)nn6)cc5)nn4)o3)nc2c1

Marked response:
13%
12%
10%
24%
51%
41%
11%

Exam item: Give the value of Activity reported for the following: `Cl.Cl.c1cc2[nH]c(-c3ccc(Cn4cc(CCCc5cn(Cc6ccc(-c7nc8cc(C9=NCCN9)ccc8[nH]7)o6)nn5)nn4)o3)nc2cc1C1=NCCN1`
Marked response: 32%
